measured.on: T1, hHER3 full length (human, UniProt P21860 20-1342)
T1 construct: On transfected CHO, CHO HER2/HER3, CHO EGFR/HER3 or CHO Flp-In cells; endogenous HER3 of MCF-7 and MDA-MB468 cells in the signalling assays; also called human HER3
assay.notes: FACS, 400 nM, competitor 17C08-biotin
endpoint.name: % competition (%)
API: value field is a number in %; no unit string.

binder	% competition, %
17C08 (VHH, also called 17C8) VHH: EVQLVESGGGLMQAGDSLRLSCAASGRAFSSYALGWFRRAPGKERECVAATDRLGDNTYFPDSVKGRFTISRDNAKNTLYLQMNNLKPEDTAVYYCAAGAVRYGVSTSPMNYNYWGQGTQVTVSS	97
17E08 (VHH) VHH: EVQLVESGGGLVQPGGSLRLSCSASGSIFGLNAMGWYRQTPGKERELVAGITSITRVGSTRYADSAKGRFTISGDYAKNTVYLQMNSLKPEDTGVYYCRMSIVKSGGADYWGQGTQVTVSS	0
05A09 (VHH) VHH: EVQLVESGGGLVQAGGSLRLSCAASGFTFDDYAIGWFRQAPGKEREGVSCISSSDGSTVYADSVKGRFTISSDNAKNTVYLQMNSLKPEDTAVYYCAAERRRGYSDLCRFYYGMDYWGKGTQVTVSS	48

Please find the next binder below.
// recorded % competition for 23F05 (VHH) VHH: EVQLVESGGGLVQAGGSLRLSCAASGFTFDGYAIGWFRQAPGKEREGVSCISGGDGRSYYADSVKGRFTVSSDNAKNTLYLEMNSLKPEDTAVYYCAVIWGPYCSDSYEYLYEYDYWGQGTQVTVSS : 8
